System: Mycolicibacterium smegmatis
Assay: Anti-mycobacterial activity against Mycobacterium smegmatis assessed as bacterial growth inhibition after 24 hrs by microplate reader analysis
Type: functional, organism-based
MEASUREMENT_KIND: pIC50
One number for each entry, as −log10 of the molar value.

Sample answers from the record:
[[record]]
substance_smiles = "O=C(O)C(=O)O.O=C(c1ccccc1F)N1CCN(Cc2cccc(Oc3ccccc3)c2)CC1"
experimental_result = 4.76

[[record]]
substance_smiles = "NNC(=O)c1ccncc1"
experimental_result = 5.01

[[record]]
substance_smiles = "COc1cccc(C(=O)N2CCN(Cc3cccc(Oc4ccccc4)c3)CC2)c1OC"
experimental_result = 4.55

[[record]]
substance_smiles = "COc1ccccc1C(=O)N1CCN(Cc2cccc(Oc3ccccc3)c2)CC1.O=C(O)C(=O)O"
experimental_result = 4.59


I have 3 molecules here; please give me pIC50 for each one.
1. O=C(c1ccccc1)N1CCN(Cc2cccc(Oc3ccccc3)c2)CC1
2. O=C(c1ccco1)N1CCN(Cc2cccc(Oc3ccccc3)c2)CC1
3. O=C(COc1ccccc1)N1CCN(Cc2cccc(Oc3ccccc3)c2)CC1

1. 4.64
2. 4.92
3. 4.67
